Provenance of the data: the kinase profiling compilation of Christmann-Franck et al. (2016)

Molecular target: PIM3 (human) (UniProt Q86V86)
Assay: radiometric filter-binding kinase assay, Kinase HotSpot
Conditions: compound 0.5 µM; ATP 10 µM
Observation Type: residual activity (%)
Please state the figure in %; there is no need to write the unit.

Entry O=S(=O)(c1cccc2cnccc12)N1CCCNCC1 has what residual activity?
91.4

Entry Nc1cccc(-c2cc3c(Oc4cccc(O)c4)ncnc3[nH]2)c1 has what residual activity?
129

Entry CCN(CC)CCNC(=O)c1c(C)[nH]c(/C=C2\C(=O)Nc3ccc(F)cc32)c1C has what residual activity?
56.8

Entry Cc1ccc(S(=O)(=O)/C=C/C#N)cc1 has what residual activity?
93.6

Entry CO[C@H]1CC2CC[C@@H](C)[C@@](O)(O2)C(=O)C(=O)N2CCCC[C@H]2C(=O)OC([C@H](C)C[C@@H]2CC[C@@H](O)[C@H](OC)C2)CC(=O)[C@H](C)/C=C(\C)[C@@H](O)[C@@H](OC)C(=O)[C@H](C)C[C@H](C)/C=C/C=C/C=C/1C (some centres undefined) has what residual activity?
106

Entry CNC(=O)c1cc(Oc2ccc(NC(=O)Nc3ccc(Cl)c(C(F)(F)F)c3)cc2)ccn1 has what residual activity?
100

Entry CCN(CC)CCNC(=O)c1c(C)[nH]c(/C=C2\C(=O)Nc3ccc(Cl)cc32)c1C has what residual activity?
74

Entry Nc1ncnc2c1c(-c1ccc(Oc3ccccc3)cc1)cn2C1CCCC1 has what residual activity?
98.7

Entry COc1cc2ncnc(Nc3cccc(Cl)c3)c2cc1OC has what residual activity?
99.4

Entry COc1ccc(COc2ccc(Cc3cnc(N)nc3N)cc2OC)cc1 has what residual activity?
95.9

Entry CCCC(=O)Oc1ccc2[nH]c(C(=O)c3cc4ccccc4[nH]3)cc2c1 has what residual activity?
84.5

Entry Nc1ccc2ncnc(NCCc3ccc(Oc4ccccc4)cc3)c2c1 has what residual activity?
104

Entry Cc1[nH]c(/C=C2\C(=O)Nc3ccc(S(=O)(=O)N(C)c4cccc(Cl)c4)cc32)c(C)c1C(=O)N1CCN(C)CC1 has what residual activity?
106

Entry c1ccc(-c2n[nH]cc2-c2ccnc3ccccc23)nc1 has what residual activity?
90.6

Entry N#C/C(=C(/N)Sc1ccc(N)cc1)c1ccccc1C(F)(F)F has what residual activity?
111

Entry Cc1ccc(Nc2nccc(N(C)c3ccc4c(C)n(C)nc4c3)n2)cc1S(N)(=O)=O has what residual activity?
81.6

Entry CCN(CC)C(=O)c1ccc(Nc2nc(OCC3CCCCC3)c3nc[nH]c3n2)cc1 has what residual activity?
109

Entry CCC(=O)Nc1ccc2ncnc(Nc3cccc(Br)c3)c2c1 has what residual activity?
76.6

Entry CCOC(=O)c1c(C)[nH]c(/C=C2\C(=O)Nc3ccccc32)c1C has what residual activity?
75.1

Entry Cc1ccc(NC2=CC(=O)c3sc(C)nc3C2=O)cc1 has what residual activity?
108

Entry O=C1NC(=O)C(c2cn(CCCn3ccnc3)c3ccccc23)=C1Nc1ccccc1 has what residual activity?
97.5

Entry N#CC(C#N)=C(N)/C(C#N)=C/c1ccc(O)cc1 has what residual activity?
91.3

Entry COc1ccc2c(c[n+](C)c3c4cc5c(cc4ccc23)OCO5)c1OC has what residual activity?
99.6

Entry O=C(Nc1cccc(Nc2nccc(Nc3cccc(C(F)(F)F)c3)n2)c1)C1CC1 has what residual activity?
106

----------
So I've got a bunch of compounds here, and I need their residual activity values.
Biological target: MAP3K3 (human) (UniProt Q99759)
Sequence (Q99759 whole entry, looked up): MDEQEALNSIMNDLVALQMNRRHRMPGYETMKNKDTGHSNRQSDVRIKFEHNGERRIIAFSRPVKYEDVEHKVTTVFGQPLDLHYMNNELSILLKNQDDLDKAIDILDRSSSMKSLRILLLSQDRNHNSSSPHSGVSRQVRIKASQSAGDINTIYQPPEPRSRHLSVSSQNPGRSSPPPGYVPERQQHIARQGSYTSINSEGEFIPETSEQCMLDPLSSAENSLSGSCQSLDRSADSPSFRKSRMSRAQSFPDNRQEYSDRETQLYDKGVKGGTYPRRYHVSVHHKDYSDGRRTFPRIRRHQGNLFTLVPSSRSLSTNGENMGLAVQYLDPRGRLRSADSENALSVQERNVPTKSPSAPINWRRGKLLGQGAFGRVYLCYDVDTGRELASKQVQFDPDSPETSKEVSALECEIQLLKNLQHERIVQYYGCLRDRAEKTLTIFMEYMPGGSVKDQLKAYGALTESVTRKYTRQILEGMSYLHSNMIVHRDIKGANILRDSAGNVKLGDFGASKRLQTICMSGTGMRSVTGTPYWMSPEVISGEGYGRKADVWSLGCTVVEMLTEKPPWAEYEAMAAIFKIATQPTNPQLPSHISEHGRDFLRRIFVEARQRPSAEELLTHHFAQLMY
Test: radiometric filter-binding kinase assay, Kinase HotSpot
Details: compound 0.5 µM; ATP 10 µM

Entry CNC(=O)c1cc(Oc2ccc(NC(=O)Nc3ccc(Cl)c(C(F)(F)F)c3)cc2)ccn1 has what residual activity?
107%

Entry N#C/C(=C(/N)Sc1ccc(N)cc1)c1ccccc1C(F)(F)F has what residual activity?
97.7%

Entry CC(=O)c1ccc(N2CCOCC2)cc1O has what residual activity?
108%

Entry CC[n+]1c(/C=C/N(C)c2ccccc2)n(-c2ccccc2)c2ccc(-c3nc4ccccc4s3)cc21 has what residual activity?
109%

Entry CC#CC(=O)Nc1cc2c(Nc3ccc(F)c(Cl)c3)ncnc2cn1 has what residual activity?
107%

Entry Cc1[nH]c(/C=C2\C(=O)Nc3ccc(S(=O)(=O)N(C)c4cccc(Cl)c4)cc32)c(C)c1C(=O)N1CCN(C)CC1 has what residual activity?
63.6%

Entry CCN(CC)CCNC(=O)c1c(C)[nH]c(/C=C2\C(=O)Nc3ccc(Cl)cc32)c1C has what residual activity?
30.6%

Entry O=C1NC(=O)c2c1c1c3ccccc3n3c1c1c2c2ccccc2n1C1CCC3O1 has what residual activity?
18.4%

Entry N#CC(C#N)=C(N)/C(C#N)=C/c1ccc(O)cc1 has what residual activity?
78.6%

Entry Nc1cccc(-c2cc3c(Oc4cccc(O)c4)ncnc3[nH]2)c1 has what residual activity?
96.4%

----------
Target: NTRK1 (human) (UniProt P04629)
Sequence (P04629 whole entry, looked up): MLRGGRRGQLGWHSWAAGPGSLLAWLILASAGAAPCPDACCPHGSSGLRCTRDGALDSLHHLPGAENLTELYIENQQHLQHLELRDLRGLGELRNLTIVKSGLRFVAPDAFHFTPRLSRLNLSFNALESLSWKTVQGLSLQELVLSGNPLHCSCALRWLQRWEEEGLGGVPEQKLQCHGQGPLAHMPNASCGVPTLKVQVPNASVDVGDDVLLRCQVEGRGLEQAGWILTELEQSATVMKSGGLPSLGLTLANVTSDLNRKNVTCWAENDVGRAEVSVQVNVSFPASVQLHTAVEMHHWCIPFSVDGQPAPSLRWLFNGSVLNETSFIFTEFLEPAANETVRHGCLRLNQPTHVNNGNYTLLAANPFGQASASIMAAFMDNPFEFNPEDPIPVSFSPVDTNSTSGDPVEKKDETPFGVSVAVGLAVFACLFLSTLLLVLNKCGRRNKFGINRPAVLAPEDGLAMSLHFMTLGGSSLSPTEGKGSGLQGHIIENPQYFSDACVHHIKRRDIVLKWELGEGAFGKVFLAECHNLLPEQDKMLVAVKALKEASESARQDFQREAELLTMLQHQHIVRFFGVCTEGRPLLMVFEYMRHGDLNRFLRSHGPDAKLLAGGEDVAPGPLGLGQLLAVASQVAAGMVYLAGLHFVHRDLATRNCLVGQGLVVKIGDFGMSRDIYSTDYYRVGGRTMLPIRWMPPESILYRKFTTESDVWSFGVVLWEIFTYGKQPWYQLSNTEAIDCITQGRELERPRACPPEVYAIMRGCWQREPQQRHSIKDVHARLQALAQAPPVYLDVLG
Experiment: radiometric filter-binding kinase assay, Kinase HotSpot
Details: compound 0.5 µM; ATP 10 µM
Observation Type: residual activity (%)
Please state the figure in %; there is no need to write the unit.

Entry CC(=O)c1ccc(N2CCOCC2)cc1O has what residual activity?
97.2

Entry O=C1NC(=O)/C(=C/c2ccc3c(c2)OC(F)(F)O3)S1 has what residual activity?
92.5

Entry COc1ccc(COc2ccc(Cc3cnc(N)nc3N)cc2OC)cc1 has what residual activity?
51.3

----------
Molecular target: CSNK1A1 (human)
Assay: radiometric filter-binding kinase assay, Kinase HotSpot
Conditions: compound 0.5 µM; ATP 10 µM
Returns TRUE if the recorded residual activity is greater than or equal to 90%, and FALSE otherwise.

Has O=c1cc(N2CCOCC2)oc2c1ccc1ccccc12 a recorded residual activity greater than or equal to 90%?
TRUE

Has Cc1ccc(S(=O)(=O)/C=C/C#N)cc1 a recorded residual activity greater than or equal to 90%?
TRUE

Has CNc1cc2c(Nc3cccc(Br)c3)ncnc2cn1 a recorded residual activity greater than or equal to 90%?
TRUE

Has N#C/C(=C(/N)Sc1ccc(N)cc1)c1ccccc1C(F)(F)F a recorded residual activity greater than or equal to 90%?
FALSE

Has CO[C@H]1CC2CC[C@@H](C)[C@@](O)(O2)C(=O)C(=O)N2CCCC[C@H]2C(=O)OC([C@H](C)C[C@@H]2CC[C@@H](O)[C@H](OC)C2)CC(=O)[C@H](C)/C=C(\C)[C@@H](O)[C@@H](OC)C(=O)[C@H](C)C[C@H](C)/C=C/C=C/C=C/1C (some centres undefined) a recorded residual activity greater than or equal to 90%?
TRUE

Has CCN(CC)CCNC(=O)c1c(C)[nH]c(/C=C2\C(=O)Nc3ccc(Cl)cc32)c1C a recorded residual activity greater than or equal to 90%?
FALSE

----------
Molecular target: DYRK3 (human)
Assay: radiometric filter-binding kinase assay, Kinase HotSpot
Conditions: compound 0.5 µM; ATP 10 µM
Observation Type: residual activity (%)
Please state the figure in %; there is no need to write the unit.

For the record CO[C@H]1CC2CC[C@@H](C)[C@@](O)(O2)C(=O)C(=O)N2CCCC[C@H]2C(=O)OC([C@H](C)C[C@@H]2CC[C@@H](O)[C@H](OC)C2)CC(=O)[C@H](C)/C=C(\C)[C@@H](O)[C@@H](OC)C(=O)[C@H](C)C[C@H](C)/C=C/C=C/C=C/1C (some centres undefined) , what value of residual activity is listed for DYRK3 (human)?
105

For the record O=S(=O)(c1cccc2cnccc12)N1CCCNCC1 , what value of residual activity is listed for DYRK3 (human)?
89.1

For the record CCCC(=O)Oc1ccc2[nH]c(C(=O)c3cc4ccccc4[nH]3)cc2c1 , what value of residual activity is listed for DYRK3 (human)?
92.6

For the record CCC(=O)Nc1ccc2ncnc(Nc3cccc(Br)c3)c2c1 , what value of residual activity is listed for DYRK3 (human)?
92.3

For the record O=C1NC(=O)C(c2cn(CCCn3ccnc3)c3ccccc23)=C1Nc1ccccc1 , what value of residual activity is listed for DYRK3 (human)?
103

For the record Nc1ncnc2c1c(-c1ccc(Oc3ccccc3)cc1)cn2C1CCCC1 , what value of residual activity is listed for DYRK3 (human)?
94.9

For the record O=C1Nc2ccc(Cl)cc2/C1=C/c1cc(Cl)c(O)c(Cl)c1 , what value of residual activity is listed for DYRK3 (human)?
91.8

For the record Nc1ncnc2[nH]nc(Nc3ccc(F)cc3)c12 , what value of residual activity is listed for DYRK3 (human)?
89

For the record CC(C)N(CCC(=O)c1ccc2ccccc2c1)Cc1ccccc1 , what value of residual activity is listed for DYRK3 (human)?
107

----------
Target: CAMK2A (human)
Assay: radiometric filter-binding kinase assay, Kinase HotSpot
Settings: compound 0.5 µM; ATP 10 µM
Observation Type: residual activity (%)
Please state the figure in %; there is no need to write the unit.

Entry O=C1NC(=O)c2c1c1c3ccccc3n3c1c1c2c2ccccc2n1C1CCC3O1 has what residual activity?
2.84

Entry Nc1ncnc2c1c(-c1ccc(Oc3ccccc3)cc1)cn2C1CCCC1 has what residual activity?
113

Entry CC(=O)c1ccc(N2CCOCC2)cc1O has what residual activity?
104

Entry Oc1cccc(-c2nc(N3CCOCC3)c3oc4ncccc4c3n2)c1 has what residual activity?
93.7

Entry CC(C)N(CCC(=O)c1ccc2ccccc2c1)Cc1ccccc1 has what residual activity?
106

Entry Cc1ccc(S(=O)(=O)/C=C/C#N)cc1 has what residual activity?
103

Entry O=C1NC(=O)/C(=C/c2ccc3c(c2)OC(F)(F)O3)S1 has what residual activity?
96.8

Entry CCN(CC)CCNC(=O)c1c(C)[nH]c(/C=C2\C(=O)Nc3ccc(F)cc32)c1C has what residual activity?
14.5

Entry c1ccc(-c2n[nH]cc2-c2ccnc3ccccc23)nc1 has what residual activity?
102

Entry c1ccc(-c2n[nH]c3c2oc2ccccc23)cc1 has what residual activity?
110

Entry CCN(CC)CCNC(=O)c1c(C)[nH]c(/C=C2\C(=O)Nc3ccc(Cl)cc32)c1C has what residual activity?
3.6

Entry Nc1cccc(-c2cc3c(Oc4cccc(O)c4)ncnc3[nH]2)c1 has what residual activity?
115

Entry Cc1ccc(NC2=CC(=O)c3sc(C)nc3C2=O)cc1 has what residual activity?
101

Entry CC[n+]1c(/C=C/N(C)c2ccccc2)n(-c2ccccc2)c2ccc(-c3nc4ccccc4s3)cc21 has what residual activity?
103

Entry N#C/C(=C(/N)Sc1ccc(N)cc1)c1ccccc1C(F)(F)F has what residual activity?
111

Entry CC#CC(=O)Nc1cc2c(Nc3ccc(F)c(Cl)c3)ncnc2cn1 has what residual activity?
108

Entry Nc1ccc2ncnc(NCCc3ccc(Oc4ccccc4)cc3)c2c1 has what residual activity?
71.3

Entry O=S(=O)(c1cccc2cnccc12)N1CCCNCC1 has what residual activity?
99.9

Entry COc1ccc(COc2ccc(Cc3cnc(N)nc3N)cc2OC)cc1 has what residual activity?
105

Entry CO[C@H]1CC2CC[C@@H](C)[C@@](O)(O2)C(=O)C(=O)N2CCCC[C@H]2C(=O)OC([C@H](C)C[C@@H]2CC[C@@H](O)[C@H](OC)C2)CC(=O)[C@H](C)/C=C(\C)[C@@H](O)[C@@H](OC)C(=O)[C@H](C)C[C@H](C)/C=C/C=C/C=C/1C (stereo partly specified) has what residual activity?
105

Entry O=c1cc(N2CCOCC2)oc2c1ccc1ccccc12 has what residual activity?
99.4
